System: Retinoic Acid Receptor (RAR) response element RARE
Assay: Reporter gene transcription assay pRARE
Type: cell-based
Settings: pRARE; normalized to 9-cis retinoic acid
Would you kindly list Eff % for each of these molecules?
Give the quantity in %, number only.

[ask] Return reported Eff %. Input molecule: CC1(C)CCC(C)(C)c2cc(N(CC3CC3)c3ncc(C(=O)O)cn3)ccc21 [PAO24]
[reply] 19

[ask] Return reported Eff %. Input molecule: CC1(C)CCC(C)(C)c2cc3c(cc21)Sc1ccccc1N=C3c1ccc(C(=O)O)cc1 [HX630]
[reply] 8

[ask] Return reported Eff %. Input molecule: CC1=C(/C=C/C(C)=C\C=C\C(C)=C\C(=O)O)C(C)(C)CCC1 [9-cis-RA, 9-cis-Retinoic Acid]
[reply] 100

[ask] Return reported Eff %. Input molecule: C=CCc1c(C)nc(-c2ccccc2)nc1Nc1ccc(C(=O)O)cc1 [XCT0135908]
[reply] 3
